system: HCC 2998; assay: NCI tumour cell line growth inhibition, 48 h
Active and inactive are the calls of the source. Cut-off read from the data, not from the text of the source: active = GI50 up to about 1.1 µM and inactive = higher.
Give GI50 for every item shown.

[[record]]
molecule = "O=C(CSCC(=O)N/N=C/c1cccc(OCc2ccccc2)c1)N/N=C/c1cccc(OCc2ccccc2)c1"
experimental_value = "30.6 µM (inactive)"

[[record]]
molecule = "NNC(=O)C(=O)N/N=C1/CCCC1C(=O)CCC(=O)Nc1ccc(Cl)cc1 (stereo not given)"
experimental_value = "> 100 µM (inactive)"

[[record]]
molecule = "O=C(/C=C(\\C(=O)c1cccs1)c1cccs1)c1ccc(C(=O)/C=C(\\C(=O)c2cccs2)c2cccs2)cc1"
experimental_value = "> 100 µM (inactive)"


Batch: GI50 for all items listed.
1. C=C1C(=O)OC2C(C)C3C=CC(=O)[C@@]3(C)C(OC(=O)/C(C)=C/C)C1[C@@H]2OC(C)=O (stereo not given in full)
2. C=C1CC[C@H]2C(C)=CC[C@H]3C(=C)C(=O)O[C@@H]3[C@@H]12 [EREMANTHIN]
3. CC1(C)C2CC(=O)C1(C)C(OCc1ccccc1)C2 (stereo not given)
4. N#Cc1cccc(Nc2ccccc2SSc2ccccc2Nc2cccc(C#N)c2)c1

1.75 µM (inactive)
> 100 µM (inactive)
59.8 µM (inactive)
16.6 µM (inactive)

Batch: GI50 for all items listed.
1. Cc1cc(C)c2c(O)cc(-c3ccc4ccccc4c3)nc2n1
2. c1cncc(CSc2nc3ccccc3nc2-c2cccs2)c1
3. NCCOc1cccc(C2(N3CCCCC3)CCCCC2)c1

1. 16.3 µM (inactive)
2. 86.1 µM (inactive)
3. 19.9 µM (inactive)

---

test system: BT-549; experiment: NCI tumour cell line growth inhibition, 48 h
Activity calls are given as the source filed them. No stated cut-off is given here; in the data, active = GI50 up to about 1.1 µM and inactive = higher.
Tick one outcome: TRUE for active, FALSE for inactive

Field: example entries. Status: answers known.
[[record]]
molecule = "COc1ccc(/C=C\\c2cc(OC)c(OC)c(OC)c2)cc1OC"
label_value = "TRUE"

[[record]]
molecule = "CN(CCCCN1CCCC1)CCCCN(C)C(=O)Cc1ccc(Cl)c(Cl)c1"
label_value = "FALSE"

[[record]]
molecule = "O=CCC1CCCCC1"
label_value = "FALSE"

[[record]]
molecule = "CCCCCCCCCCCCc1ccsc1-c1ccc(-c2ccc(-c3sc(-c4cc(CCCCCCCCCCCC)c(-c5ccc(-c6ccc(-c7sccc7CCCCCCCCCCCC)s6)s5)s4)cc3CCCCCCCCCCCC)s2)s1"
label_value = "FALSE"

[[record]]
molecule = "CCCCn1c2c(n(CCCC)c1=S)-c1c(n(CCCC)c(=S)n1CCCC)SSc1c(n(CCCC)c(=S)n1CCCC)-c1c(n(CCCC)c(=S)n1CCCC)SSc1c(n(CCCC)c(=S)n1CCCC)-c1c(n(CCCC)c(=S)n1CCCC)SS2"
label_value = "FALSE"

[[record]]
molecule = "Nc1c(C(=O)O)nnc2cc(Cl)ccc12"
label_value = "FALSE"

[[record]]
molecule = "COc1cc2c3c4[n+](cc2c(OC)c1OC)CCC4CCC3 (centres undefined)"
label_value = "FALSE"

[[record]]
molecule = "CCSc1nnc(Sc2c3ccccc3nc3ccccc23)s1"
label_value = "FALSE"


Shifting focus to the molecule that follows.
What did this assay record as the result for C=CCn1c(-c2ccc(-c3cs/c(=N\N=O)n3CC=C)cc2)cs/c1=N\N=O ?
FALSE
